Target: wild-type TAS2R16 (Homo sapiens)
Construct: FLAG (N); expressed in transfected cells; host or cells: HEK-293T
Test: Ca2+ flux assay, HEK-293T cells expressing wild-type TAS2R16 and Gα16gust44
Format: cell-based
Settings: wild-type TAS2R16, HEK-293T
measuredQuantity: activation of wild-type TAS2R16

C=CCC(=NOS(=O)(=O)O)S[C@@H]1O[C@H](CO)[C@@H](O)[C@H](O)[C@H]1O (stereo in doubt) | activation
OC[C@H]1O[C@@H](Sc2ccccc2)[C@H](O)[C@@H](O)[C@@H]1O [phenyl-β-D-thioglucopyranoside] | activation

---

Target: wild-type TAS2R16 (Homo sapiens, UniProt Q9NYV7)
Construct: FLAG (N); expressed in transfected cells; host or cells: HEK-293T
Assay: Ca2+ flux assay, HEK-293T cells expressing wild-type TAS2R16 and Gα16gust44
Assay type: cell-based
Conditions: Fig. 2d dose-response, wild-type TAS2R16, HEK-293T; read-out: EC50
measuredQuantity: EC50 (µM)
Answers are plain numbers, in µM.

These recorded examples may help you get a feel for the data.
CCCCCCO[C@@H]1O[C@H](CO)[C@@H](O)[C@H](O)[C@H]1O [hexyl-glucoside, hexyl-β-D-glucopyranoside] | 2100
CC(=O)N[C@H]1[C@H](Oc2ccccc2)O[C@H](CO)[C@@H](O)[C@@H]1O [β-glucosaminide, phenyl-N-acetyl-β-D-glucosaminide] | 2500
OCc1ccccc1O[C@@H]1O[C@H](CO)[C@@H](O)[C@H](O)[C@H]1O | 1200

# ---- query compound ----
Which EC50 reading was recorded for the compound O=[N+]([O-])c1ccc(O[C@@H]2O[C@H](CO)[C@@H](O)[C@H](O)[C@@H]2O)cc1 [4-NP-β-mannoside, 4-nitrophenyl-β-D-mannopyranoside] ? 650

---

So I've got a bunch of molecules here, and I need their Ca2+ flux signaling value values.
Molecular target: S108T TAS2R16 (Homo sapiens, UniProt Q9NYV7, S108T)
Construct: FLAG (N); expressed in transfected cells; host or cells: HEK-293T
Assay: Ca2+ flux assay, mutation library clone S108T
Format: cell-based
Conditions: library screening concentrations

These recorded examples may help you get a feel for the data.
OCc1ccccc1O[C@@H]1O[C@H](CO)[C@@H](O)[C@H](O)[C@H]1O [salicin] | 99 % of wild-type
O=[N+]([O-])c1ccc(O[C@@H]2O[C@H](CO)[C@@H](O)[C@H](O)[C@@H]2O)cc1 [4-NP-β-mannoside, 4-nitrophenyl-β-D-mannopyranoside] | 103 % of wild-type
CC(=O)N[C@H]1[C@H](Oc2ccccc2)O[C@H](CO)[C@@H](O)[C@@H]1O [β-glucosaminide, phenyl-N-acetyl-β-D-glucosaminide] | 132 % of wild-type

# ---- query molecule ----
Which Ca2+ flux signaling value reading was recorded for the molecule CCCCCCO[C@@H]1O[C@H](CO)[C@@H](O)[C@H](O)[C@H]1O [hexyl-glucoside, hexyl-β-D-glucopyranoside] ? 122 % of wild-type

---

Molecular target: S228T TAS2R16 (Homo sapiens, UniProt Q9NYV7, S228T)
Construct: FLAG (N); expressed in transfected cells; host or cells: HEK-293T
Sequence (Q9NYV7 1-291 S228T): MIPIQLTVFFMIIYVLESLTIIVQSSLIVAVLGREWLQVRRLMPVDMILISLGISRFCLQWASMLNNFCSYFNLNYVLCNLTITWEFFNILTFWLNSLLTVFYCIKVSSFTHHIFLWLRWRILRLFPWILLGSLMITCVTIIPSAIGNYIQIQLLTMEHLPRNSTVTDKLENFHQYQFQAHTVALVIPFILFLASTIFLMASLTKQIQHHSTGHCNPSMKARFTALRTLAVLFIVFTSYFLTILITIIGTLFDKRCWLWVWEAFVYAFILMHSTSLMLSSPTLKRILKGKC
Test: Ca2+ flux assay, mutation library clone S228T
Assay type: cell-based
Details: library screening concentrations
measuredQuantity: Ca2+ flux signaling value

These recorded examples may help you get a feel for the data.
OCc1ccccc1O[C@@H]1O[C@H](CO)[C@@H](O)[C@H](O)[C@H]1O [salicin] | 90 % of wild-type
CCCCCCO[C@@H]1O[C@H](CO)[C@@H](O)[C@H](O)[C@H]1O [hexyl-glucoside, hexyl-β-D-glucopyranoside] | 122 % of wild-type
CC(=O)N[C@H]1[C@H](Oc2ccccc2)O[C@H](CO)[C@@H](O)[C@@H]1O [β-glucosaminide, phenyl-N-acetyl-β-D-glucosaminide] | 105 % of wild-type

# ---- query compound ----
Which Ca2+ flux signaling value reading was recorded for the compound O=[N+]([O-])c1ccc(O[C@@H]2O[C@H](CO)[C@@H](O)[C@H](O)[C@@H]2O)cc1 [4-NP-β-mannoside, 4-nitrophenyl-β-D-mannopyranoside] ? 120 % of wild-type
